# Test system: NCI-H460
# assay.remarks: Growth inhibitory activity against NCI-H460 human lung cancer cell line
# Format: functional, cell-based
Known IC50 of a selection of sequences
Supply the numeric figure in µM, leaving out any unit text.

| sequence.string | test.system | IC50, µM |
| --- | --- | --- |
| CARBOPLATIN | NCI-H460 | 60.3 |

Now for another entry.
Q: What does the record list as IC50 for CISPLATIN ?
Result: 11.3

----------
Known IC50 of a selection of sequences
# Tested on: NCI-H460
# assay.remarks: Cytotoxicity against NCI-H460-resistant Human Nonsmall Cell Lung Cancer cell line assessed by MTT assay after 96 hr of compound exposure (resistance level)
# Assay type: functional, cell-based
Supply the numeric figure in µM, leaving out any unit text.

| sequence.string | unit.of.measure | IC50 |
| --- | --- | --- |
| CISPLATIN | µM | 4.96 |

Now for another entry.
Q: What does the record list as IC50 for CARBOPLATIN ?
Result: 54.6
